target.system: T1, cynomolgus monkey TREM2 Fc fusion (entire TREM2 ECD; only one Fc arm fused to TREM2) (cynomolgus monkey, UniProt Q9NZC2 19-174 (human entry))
T1 construct: also called cyno TREM2-Fc
T1 chain: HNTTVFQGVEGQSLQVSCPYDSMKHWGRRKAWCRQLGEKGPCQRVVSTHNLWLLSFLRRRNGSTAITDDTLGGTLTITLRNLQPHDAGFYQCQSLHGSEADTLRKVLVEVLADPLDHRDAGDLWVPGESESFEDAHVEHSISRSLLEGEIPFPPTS
assay.overview: BLI, Fab, monovalent
pKd: −log10 of the molar value.
measured.quantity: pKd

- binder: "AL2p-23 (antibody, V domains shown, Fab and IgG formats under one id) VH: QVQLVQSGAEVKKPGSSVKVSCKASGYAFSSHWMNWVRQAPGQGLEWMGRIYPGDGQTNYAQKRQGRVTITADESTSTAYMELSSLRSEDTAVYYCARLLRNQPGESYAMDYWGQGTLVTVSS VL: GVVMTQTPLSLSVTPGQPASISCRTSQSLVHSNGYTYLHWYLQKPGQSPQLLIYKVSNRVSGVPDRFSGSGSGTDFTLKISRVEAEDVGVYYCSQSTRVPYTFGQGTKLEIK"
  measured.quantity: "pKd"
  readout.number: 8.38
- binder: "AL2p-32 (antibody, V domains shown, Fab and IgG formats under one id) VH: QVQLVQSGAEVKKPGSSVKVSCKASGYAFSSEWMNWVRQAPGQGLEWMGRIYPGDGDTNYAQKFQGRVTITADESTSTAYMELSSLRSEDTAVYYCARLLRNQPGESYAMDYWGQGTLVTVSS VL: GVVMTQTPLSLSVTPGQPASISCRSSQSLVHSNGYTYLHWYLQKPGQSPQLLIYKVSNRRSGVPDRFSGSGSGTDFTLKISRVEAEDVGVYYCSQSTRVPYTFGQGTKLEIK"
  measured.quantity: "pKd"
  readout.number: 7.46
- binder: "AL2p-25 (antibody, V domains shown, Fab and IgG formats under one id) VH: QVQLVQSGAEVKKPGSSVKVSCKASGYAFSSHWMNWVRQAPGQGLEWMGRIYPGGGDTNYAQKFRGRVTITADESTSTAYMELSSLRSEDTAVYYCARLLRNQPGESYAMDYWGQGTLVTVSS VL: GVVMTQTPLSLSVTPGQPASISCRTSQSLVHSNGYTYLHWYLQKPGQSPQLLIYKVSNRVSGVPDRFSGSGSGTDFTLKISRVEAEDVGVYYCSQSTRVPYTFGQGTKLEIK"
  measured.quantity: "pKd"
  readout.number: 8.75
